# Tested on: Musca domestica
# ASSAY REMARKS: Housefly bait/contact test
# Type: in vivo
# Set-up: key: ‘X’ means highly active; ‘+’ means moderately active; ‘−’ means low activity
# STUDY CONDITIONS: 50 ppm in sugar water bait solution, adult houseflies, mortality after 24 hours
QUANTITY NAME: Activity on house flies by contact

INSERT INTO measurements (compound, quantity_name, measured_result) VALUES
  ('CCNc1c([S+](C)[O-])c(C2(C)OCCO2)nn1-c1c(Cl)cc(C(F)(F)F)cc1Cl (stereo not drawn)', 'Activity on house flies by contact', 'X'),
  ('CC1COC(C)(c2nn(-c3c(Cl)cc(C(F)(F)F)cc3Cl)c(N)c2S(C)(=O)=O)O1 (stereo not drawn)', 'Activity on house flies by contact', 'X'),
  ('CCNc1c(SC)c(C2(C)OCCO2)nn1-c1c(Cl)cc(C(F)(F)F)cc1Cl', 'Activity on house flies by contact', 'X'),
  ('COC(C)(OC)c1nn(-c2c(Cl)cc(C(F)(F)F)cc2Cl)c(N)c1[S+](C)[O-] (stereo not drawn)', 'Activity on house flies by contact', 'X'),
  ('CNc1c(S(C)(=O)=O)c(C2(C)OCCO2)nn1-c1c(Cl)cc(C(F)(F)F)cc1Cl', 'Activity on house flies by contact', 'X'),
  ('CC1(c2nn(-c3c(Cl)cc(C(F)(F)F)cc3Cl)c(N)c2S(C)(=O)=O)OCCO1', 'Activity on house flies by contact', 'X'),
  ('CCNc1c(S(C)(=O)=O)c(C2(C)OCCO2)nn1-c1c(Cl)cc(C(F)(F)F)cc1Cl', 'Activity on house flies by contact', 'X'),
  ('C[S+]([O-])c1c(C2(C)SCC[S+]2[O-])nn(-c2c(Cl)cc(C(F)(F)F)cc2Cl)c1N (stereo not drawn)', 'Activity on house flies by contact', 'X'),
  ('CSCC1COC(C)(c2nn(-c3c(Cl)cc(C(F)(F)F)cc3Cl)c(N)c2SC)O1 (stereo not drawn)', 'Activity on house flies by contact', 'X'),
  ('CSc1c(C2(C)OCC(CO)(CO)CO2)nn(-c2c(Cl)cc(C(F)(F)F)cc2Cl)c1N', 'Activity on house flies by contact', '−'),
  ('CC1(c2nn(-c3c(Cl)cc(C(F)(F)F)cc3Cl)c(N)c2S(C)(=O)=O)OCC(CO)O1 (stereo not drawn)', 'Activity on house flies by contact', '+'),
  ('CSc1c(C2(C)SCC[S+]2[O-])nn(-c2c(Cl)cc(C(F)(F)F)cc2Cl)c1N (stereo not drawn)', 'Activity on house flies by contact', 'X'),
  ('C[S+]([O-])c1c(C2(C)OCCO2)nn(-c2c(Cl)cc(C(F)(F)F)cc2Cl)c1N (stereo not drawn)', 'Activity on house flies by contact', 'X'),
  ('CNc1c([S+](C)[O-])c(C2(C)OCCO2)nn1-c1c(Cl)cc(C(F)(F)F)cc1Cl (racemic)', 'Activity on house flies by contact', '−'),
  ('C[S+]([O-])c1c(C2(C)SCCS2)nn(-c2c(Cl)cc(C(F)(F)F)cc2Cl)c1N (stereo not drawn)', 'Activity on house flies by contact', 'X'),
  ('CSc1c(C2(C)OCC(C)O2)nn(-c2c(Cl)cc(C(F)(F)F)cc2Cl)c1N (stereo not drawn)', 'Activity on house flies by contact', 'X'),
  ('C[S+]([O-])CC1COC(C)(c2nn(-c3c(Cl)cc(C(F)(F)F)cc3Cl)c(N)c2S(C)(=O)=O)O1 (stereo not drawn)', 'Activity on house flies by contact', '+'),
  ('CSc1c(C2(C)OCC(CO)O2)nn(-c2c(Cl)cc(C(F)(F)F)cc2Cl)c1N (stereo not drawn)', 'Activity on house flies by contact', '−'),
  ('CC1(c2nn(-c3c(Cl)cc(C(F)(F)F)cc3Cl)c(N)c2S(C)(=O)=O)[S+]([O-])CC[S+]1[O-] (stereo not drawn)', 'Activity on house flies by contact', '−'),
  ('CSc1c(C2(C)OCCO2)nn(-c2c(Cl)cc(C(F)(F)F)cc2Cl)c1N', 'Activity on house flies by contact', 'X'),
  ('CC1(c2nn(-c3c(Cl)cc(C(F)(F)F)cc3Cl)c(N)c2S(C)(=O)=O)OCCS1 (stereo not drawn)', 'Activity on house flies by contact', '−'),
  ('CC1COC(C)(c2nn(-c3c(Cl)cc(C(F)(F)F)cc3Cl)c(N)c2[S+](C)[O-])O1 (stereo not drawn)', 'Activity on house flies by contact', 'X'),
  ('CC1(c2nn(-c3c(Cl)cc(C(F)(F)F)cc3Cl)c(N)c2S(C)(=O)=O)SCCS1', 'Activity on house flies by contact', 'X'),
  ('CNc1c(SC)c(C2(C)OCCO2)nn1-c1c(Cl)cc(C(F)(F)F)cc1Cl', 'Activity on house flies by contact', 'X');
